Measured target: T1, CD226 (Homo sapiens (Human), UniProt Q15762 19-336)
T1 construct: on transfected cells
T1 sequence: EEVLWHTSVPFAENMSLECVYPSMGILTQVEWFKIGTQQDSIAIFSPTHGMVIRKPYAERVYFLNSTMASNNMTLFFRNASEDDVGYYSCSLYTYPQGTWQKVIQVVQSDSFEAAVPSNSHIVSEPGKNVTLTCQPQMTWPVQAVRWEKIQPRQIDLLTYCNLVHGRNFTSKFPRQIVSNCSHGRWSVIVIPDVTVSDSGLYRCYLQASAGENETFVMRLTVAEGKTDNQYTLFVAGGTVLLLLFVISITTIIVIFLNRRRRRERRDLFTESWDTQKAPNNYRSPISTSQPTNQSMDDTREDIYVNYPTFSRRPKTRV
Experiment: flow cytometry, transfected cells
Entries and their MFI parental ratio

Binder: variant CD155 IgV-Fc P18T, F91S, R94H (Fc fusion, not shown: a dimerising Fc or GST) WPPPGTGDVVVQAPTQVTGFLGDSVTLPCYLQVPNMEVTHVSQLTWARHGESGSMAVFHQTQGPSYSESKRLEFVAARLGAELRNASLRMSGLHVEDEGNYTCLFVTFPQGSRSVDIWLRVL
MFI parental ratio, ratio: 1

Binder: variant CD155 IgV-Fc P18L, L79V, F91S (Fc fusion, not shown: a dimerising Fc or GST) WPPPGTGDVVVQAPTQVLGFLGDSVTLPCYLQVPNMEVTHVSQLTWARHGESGSMAVFHQTQGPSYSESKRLEFVAARVGAELRNASLRMSGLRVEDEGNYTCLFVTFPQGSRSVDIWLRVL
MFI parental ratio, ratio: 1.4

Binder: Wildtype CD155 IgV Fc (Fc fusion, not shown: a dimerising Fc or GST) WPPPGTGDVVVQAPTQVPGFLGDSVTLPCYLQVPNMEVTHVSQLTWARHGESGSMAVFHQTQGPSYSESKRLEFVAARLGAELRNASLRMFGLRVEDEGNYTCLFVTFPQGSRSVDIWLRVL
MFI parental ratio, ratio: 1

Binder: variant CD155 IgV-Fc A81V, L83P (Fc fusion, not shown: a dimerising Fc or GST) WPPPGTGDVVVQAPTQVPGFLGDSVTLPCYLQVPNMEVTHVSQLTWARHGESGSMAVFHQTQGPSYSESKRLEFVAARLGVEPRNASLRMFGLRVEDEGNYTCLFVTFPQGSRSVDIWLRVL
MFI parental ratio, ratio: 1.1
